target: Acyl-CoA:cholesterol acyltransferase (Oryctolagus cuniculus); assay: Inhibition of ACAT in hyperlipidemic white rabbit adrenal microsomes assessed as esterified cholesterol accumulation; set-up: species or system Adrenal gland
Sequence (Q95214 whole entry): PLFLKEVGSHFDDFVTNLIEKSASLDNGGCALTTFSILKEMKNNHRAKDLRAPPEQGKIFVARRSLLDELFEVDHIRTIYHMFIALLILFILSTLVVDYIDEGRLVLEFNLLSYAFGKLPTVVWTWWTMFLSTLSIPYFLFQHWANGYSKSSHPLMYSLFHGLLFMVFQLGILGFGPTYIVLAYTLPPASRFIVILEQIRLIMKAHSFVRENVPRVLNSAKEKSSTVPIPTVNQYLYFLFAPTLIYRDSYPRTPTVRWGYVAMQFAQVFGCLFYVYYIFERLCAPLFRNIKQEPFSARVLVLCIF
Measured property: pIC50
FYI, pIC50 means -log10 of a concentration in mol per litre.

Q: pIC50 lookup needed for "CCCCCCCCN1CCc2c(C)c(CC(=O)O)c(C)c(NC(=O)C(C)(C)C)c21" , thanks.
A: 4.80

###

target: UniProtKB Q95214; test: Inhibition of ACAT in hyperlipidemic white rabbit intestine microsomes assessed as esterified cholesterol accumulation; set-up: species or system Microsome
Measured property: IC50 (nM)
Give a bare numeral; the unit nM is implied.

Q: IC50 lookup needed for "CCCCCCCCN1CCc2c(C)c(CC(=O)O)c(C)c(NC(=O)C(C)(C)C)c21" , thanks.
A: 720
